protocol.text: Aqueous solubility of the compound at pH 7.4
Type: physicochemical
measurement.parameters: buffer, read-out: solubility
measured.parameter: solubility (µM)

Cc1ccc(C(=O)NC2CC2)cc1-n1ccnc(Nc2ccccc2)c1=O 405
Cc1ccc(C(=O)NC2CC2)cc1-n1ccnc(NCCc2ccccc2)c1=O 392
Cc1ccc(C(=O)NC2CC2)cc1-n1ccnc(N[C@@H](c2ccccc2)[C@@H](C)CN2CCN[C@@H](C)C2)c1=O 783
CNCCOc1ccccc1C(C)(C)Nc1nccn(-c2cc(C(=O)NC3CC3)ccc2C)c1=O 650

[P] Cc1ccc(C(=O)NC2CC2)cc1-n1ccnc(NCc2ccccc2OCCN2CCCC2)c1=O
[Q] CC[C@@H](Nc1nccn(-c2cc(C(=O)NC3CC3)ccc2C)c1=O)c1ccccc1
[R] Cc1ccc(C(=O)NC2CC2)cc1-n1ccnc(N[C@@H](C)c2ccccc2)c1=O
[Q] # rank_down: sort by solubility, max first Record the ranking as a list of labels in the requested order.
[A] P, Q, R
(P: 670 µM, Q: 270 µM, R: 50 µM)

----------
protocol.text: Distribution coefficient, logD of the compound at pH 7.4
Assay type: physicochemical
measurement.parameters: octanol/water
measured.parameter: logD

COc1cccc(CNc2nccn(-c3cc(C(=O)NC4CC4)ccc3C)c2=O)c1 2.7

[1] Cc1ccc(C(=O)NC2CC2)cc1-n1ccnc(N[C@@H](c2ccccc2)[C@@H](C)CN2CCCCC2)c1=O
[2] CNc1nccn(-c2cc(C(=O)NC3CC3)ccc2C)c1=O
[3] Cc1ccc(C(=O)NC2CC2)cc1-n1ccnc(N[C@@H](c2ccccc2)[C@@H](C)CN2CCN[C@H](C)C2)c1=O
[Q] # rank_down: sort by logD, max first Record the ranking as a list of labels in the requested order.
[A] 1, 3, 2

[A] Cc1ccc(C(=O)NC2CC2)cc1-n1ccnc(N(C)Cc2ccccc2)c1=O
[B] Cc1ccc(C(=O)NC2CC2)cc1-n1ccnc(N[C@@H](c2ccccc2)[C@@H](C)CN2CCN[C@@H](C)C2)c1=O
[Q] When A and B are compared, which has the higher number for logD? # reply format: chosen label
[A] A
(A: 3.2, B: 1.5)

----------
protocol.text: Intrinsic clearance in rat hepatocytes assessed per 10^6 cells
Type: ADME, cell-based, Hepatocyte
measurement.parameters: read-out: CLH
measured.parameter: hepatocyte CLint (µL/min/1e6 cells)

Cc1ccc(C(=O)NC2CC2)cc1-n1ccnc(NCc2ccccc2OCCN2CCCC2)c1=O 55

[A] CC[C@@H](Nc1nccn(-c2cc(C(=O)NC3CC3)ccc2C)c1=O)c1ccccc1
[B] Cc1ccc(C(=O)NC2CC2)cc1-n1ccnc(NCc2ccccc2)c1=O
[Q] When A and B are compared, which has the higher number for hepatocyte CLint? # reply format: chosen label
[A] A

----------
protocol.text: Clearance in iv dosed rat
Assay type: ADME, organism-based
measurement.parameters: in vivo
measured.parameter: clearance (mL/min/kg)

Cc1ccc(C(=O)NC2CC2)cc1-n1ccnc(N[C@@H](c2ccccc2)[C@@H](C)CN2CCCCC2)c1=O 50

[A] Cc1ccc(C(=O)NC2CC2)cc1-n1ccnc(NC(C)(C)c2ccccc2OCCN2CCCC2)c1=O
[B] CNCCOc1ccccc1C(C)(C)Nc1nccn(-c2cc(C(=O)NC3CC3)ccc2C)c1=O
[Q] When A and B are compared, which has the higher number for clearance? # reply format: chosen label
[A] A
(A: 99 mL/min/kg, B: 59 mL/min/kg)
